test system: NCI-H460 lung; experiment: NCI tumour cell line growth inhibition, 48 h
endpoint: TGI

[[record]]
molecule = "Cc1ccc(N=C2C(=O)C3=C(OC(C)(C)CC3)c3ccccc32)cc1"
endpoint = "TGI"
data_value = "3.96 µM"

[[record]]
molecule = "COc1ccc(CC2NC(=O)/C=C/CC(C(C)C3OC3c3ccccc3)OC(=O)C(CC(C)C)OC(=O)C(C)CNC2=O)cc1Cl (stereo not given)"
endpoint = "TGI"
data_value = "0.00696 µM"

[[record]]
molecule = "CC(C)CC1=[N+]=C(NC#N)N=C(CCC(=O)Nc2ccccc2[N+](=O)[O-])C1"
endpoint = "TGI"
data_value = "> 100 µM"

[[record]]
molecule = "CNC(=S)N/N=C/c1cccc(C)n1"
endpoint = "TGI"
data_value = "60.9 µM"

[[record]]
molecule = "COc1cccc(NC(=O)CC(=O)N2N=C(C)C(N=Nc3ccc(S(=O)(=O)c4ccc(N=NC5C(=O)N(C(=O)CC(=O)Nc6cccc(OC)c6)N=C5C)cc4)cc3)C2=O)c1 (stereo not given)"
endpoint = "TGI"
data_value = "> 100 µM"


---

test system: RPMI-8226 leukemia; experiment: NCI tumour cell line growth inhibition, 48 h
endpoint: log10 of TGI (log10 of the value in µM)

[[record]]
compound = "CSC1=C(c2ccc(Cl)cc2)SC(N2CCCCC2)N1c1ccc([N+](=O)[O-])cc1 (configuration not stated)"
tested_target = "RPMI-8226 leukemia"
data_value = 1.66

[[record]]
compound = "CC[C@@H](/C=C\\CCC1(C[C@H](O)CCC=C(C)C)OCCO1)O[Si](C(C)C)(C(C)C)C(C)C"
tested_target = "RPMI-8226 leukemia"
data_value = 1.63

[[record]]
compound = "Cc1cc2c3ccccc3n(C)c2c2c1C(=O)C=CC2=O"
tested_target = "RPMI-8226 leukemia"
data_value = 0.74

[[record]]
compound = "COCCOCCOC1=C(Cl)C(=O)c2c(O)ccc(O)c2C1=O"
tested_target = "RPMI-8226 leukemia"
data_value = 0.49

[[record]]
compound = "Clc1nc(Cl)c2c(ncn2C/C=C\\Cn2cnc3c(Cl)nc(Cl)nc32)n1"
tested_target = "RPMI-8226 leukemia"
data_value = 0.58

[[record]]
compound = "CCC(C)C(=O)c1c(O)c(C/C=C(\\C)CCC=C(C)C)c(O)c2c(C(O)CC)cc(=O)oc12 (configuration not stated)"
tested_target = "RPMI-8226 leukemia"
data_value = 0.55

[[record]]
compound = "N/C(=N/n1c(=S)[nH]c2ccccc2c1=O)Nn1c(=S)[nH]c2ccccc2c1=O"
tested_target = "RPMI-8226 leukemia"
data_value = 1.76

[[record]]
compound = "Cc1cccc(C(C)C)c1NC(=O)C(=O)CC(=O)c1c(C)n([O-])c2ccccc2[n+]1=O"
tested_target = "RPMI-8226 leukemia"
data_value = 1.86

[[record]]
compound = "CSc1ccc(/C=C2\\N=C(c3ccccc3)N(c3nc4ccc(Sc5ccccc5)cc4[nH]3)C2=O)cc1"
tested_target = "RPMI-8226 leukemia"
data_value = 1.76

[[record]]
compound = "C=C(C)C(=O)O[C@H]1[C@H]2[C@H](OC(=O)[C@H]2C)[C@H](O)[C@@H](C)[C@@H]2C=CC(=O)[C@]21C"
tested_target = "RPMI-8226 leukemia"
data_value = 0.99

